// provenance: the supplement of paper PMC10567573

B1: PPP2R2B (parent)
chain: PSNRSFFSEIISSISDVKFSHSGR

# Variants of: B1
# assay-notes: protein stability index of a GFP-peptide fusion (GPS, HEK-293T) (PSI 1-6); higher = more stable;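 note: lentivirally expressed fusions sorted by FACS into six bins by GFP to DsRed ratio, PSI derived from sequencing read proportions per bin multiplied by bin number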
# conditions-used: c terminus: a fixed tail appended
measurement-name: protein stability index
Answer with the value's number alone.

Example results:
S12L	1.69
I11H	3.46
V17D	3.18
S5G	2.59
F7D	3.56

# input Which protein stability index value is on record for S20K ?
# output 2.7

# input Which measured protein stability index value corresponds to V17K ?
# output 2.73

# input Please report the recorded protein stability index for F6T .
# output 3.4

# input Data request, read-out protein stability index, for R4A
# output 2.64

# input If you can, please state the reported protein stability index value of R24L .
# output 1.75
